# Test system: CAKI-1 renal
# Test name: NCI tumour cell line growth inhibition, 48 h
Would you kindly list TGI for each of these molecules?

Returns the measured TGI for the input molecule. Input: O=C(CC(=O)N(C(=O)c1ccccc1)c1ccc(Cl)cc1)N/N=C\c1cc(N=Nc2ccccc2Cl)ccc1O > 100 µM

Returns the measured TGI for the input molecule. Input: NC1C2(CCCCCC2)NC(=O)C12CCCCCC2 (stereo not drawn) > 100 µM

Returns the measured TGI for the input molecule. Input: C=C(C)[C@@H](C(=O)OC)N1C(=O)c2ccccc2C1=O > 100 µM

* * *

Measurement type: GI50

Param readout= GI50; system= RXF 393 renal; entry= COC(=O)[C@]12CCC(C)(C)C[C@H]1C1=CC[C@@H]3[C@@]4(C)C/C(=C/c5cccnc5)C(=O)C(C)(C)[C@@H]4CC[C@@]3(C)[C@]1(C)CC2 ; returns value. 4.25 µM

Param readout= GI50; system= RXF 393 renal; entry= COc1ccc2cc(C(=O)/C=C/c3cccc(OC)c3OC)ccc2c1 ; returns value. 3.76 µM

Param readout= GI50; system= RXF 393 renal; entry= CCCCC/C=C/C/C=C/CCCCCCCC1=NC(C)(C)CN1C(C)C ; returns value. 2.1 µM
